# System: TK-10
# measurement.notes: NCI tumour cell line growth inhibition, 48 h
Active and inactive are the calls of the source. No stated cut-off is given here; in the data, active = GI50 up to about 1.1 µM and inactive = higher.
I would appreciate it if you answered using one of these outcomes: active, inactive

Consider the following illustrative entries.
NC(=O)OCC(COc1ccc(Cl)cc1)OC(=O)c1cc([N+](=O)[O-])cc([N+](=O)[O-])c1 (stereo unspecified)
inactive
O=c1cccc(Cl)[nH]1
inactive
CC(C)=CCC/C(C)=C/COC(C)(C)C1=CCC(C)CC1.CC(C)=CCC/C(C)=C/COC1CC(C)CCC1=C(C)C (stereo unspecified)
inactive

Now consider a different molecule.
Hello, I am checking results. What call was entered for Oc1ccc(-c2nc3cc(C(F)(F)F)ccc3n2CC2CCCN3CCCCC23)cc1 (stereo unspecified) ?
inactive

###

# Tested on: SK-MEL-28
# measurement.notes: NCI tumour cell line growth inhibition, 48 h
Active and inactive are the calls of the source. Rule as the data show it: active = GI50 up to about 1.1 µM and inactive = higher.
metric.name: GI50

COc1cc(CC(C)=O)cc(OC)c1
> 100 µM (inactive)

Please turn your attention to the following entry.
Please supply the value of reported GI50 for the item Nc1nc(O)c2[nH]cnc2[n+]1[O-]
> 100 µM (inactive)

###

# Tested on: SR
# measurement.notes: NCI tumour cell line growth inhibition, 48 h
Active and inactive are the calls of the source. No stated cut-off is given here; in the data, active = GI50 up to about 1.1 µM and inactive = higher.
Tick one outcome: 1 (yes) = active, 0 (no) = inactive

Before answering, review these 5 worked examples.
CC1(Br)Cc2ccccc2C1=O (centres undefined)
0 (no)
CCOP(=O)(OCC)[C@H](O)c1ccsc1
0 (no)
CC1=NN(c2ccc(S(=O)(=O)O)cc2)C2(C1)C(Cl)C(=O)N2c1nc2ccccc2s1 (centres undefined)
0 (no)
COC(=O)N[C@@H]1C[C@H]2CC[C@]1(O[Si](C(C)C)(C(C)C)C(C)C)C(=O)C2
0 (no)
C[C@]12CC[C@H](O)C[C@H]1CC[C@@H]1[C@@H]2CC[C@]2(C)[C@@H](C3=CC(=O)OC3)[C@@H](O)C[C@]12O
1 (yes)

Hi, do you know how CCOC(=O)/C(ON)=C(/CC/C(C(=O)OC)=C(\ON)C(=O)OCC)C(=O)OC came out in this test?
0 (no)

# lookup: test call for CCC1c2[nH]c3ccccc3c2C[C@H]2C(=O)N3CCC[C@H]3C(=O)N12 (some centres undefined)
0 (no)

Outcome? S=C(NC/C(Br)=C/Br)Nc1cccc2ccccc12
0 (no)

Dear colleague, could you share the recorded outcome for CC1=CC(=O)CC2(C)CC[C@@H]3C[C@]12OC3(C)C (some centres undefined) when you have a moment?
0 (no)

###

# Tested on: HOP-62
# measurement.notes: NCI tumour cell line growth inhibition, 48 h
Active and inactive are the calls of the source. No stated cut-off is given here; in the data, active = GI50 up to about 1.1 µM and inactive = higher.
Here, each record is paired with measured GI50 data.

Recorded results for 3 compounds are shown here.
C#CCC(O)c1ccc(OC)c(OCc2ccccc2)c1 (stereo not given)
> 100 µM (inactive)
Cc1cccc(N2C(=O)C(=O)C(c3nc4ccccc4s3)C(=O)C2=O)c1C
> 100 µM (inactive)
O=C1/C(=C/C=C/c2ccccc2)CCC1CNc1ccccc1 (stereo not given)
> 100 µM (inactive)

Please give the documented GI50 of COc1cc([C@@H]2c3cc4c(cc3[C@@H](c3c(O)cc(O)c5c3O[C@H](c3ccc(O)c(O)c3)[C@@H](O)C5)[C@H]3COC(=O)[C@H]23)OCO4)cc(OC)c1OC
1.88 µM (inactive)

Return value of GI50 for input Cc1c(CN2CCOCC2)c(CN2CCOCC2)c(C)n1-c1ccc(Cl)cn1 , no commentary.
> 100 µM (inactive)

Return the recorded GI50 value; entry: N#CC1CC2(C1)OCCS2 (stereo not given)
> 100 µM (inactive)

Return GI50 for the following compound: Cc1nn(C(=O)c2ccncc2)c2c1C(c1cccc([N+](=O)[O-])c1)SC(=N)N2 (stereo not given)
> 10 µM (inactive)

For the compound C=CCCON(C(=O)OC(C)(C)C)c1ccccc1 , report GI50.
> 100 µM (inactive)

Note down GI50 recorded for COc1cc(C(C)c2cc3c(cc2OCCOCCOc2cc4c(cc2C(C)c2cc(OC)c(OC)c(OC)c2)OCO4)OCO3)cc(OC)c1OC (stereo not given)
> 10 µM (inactive)

Identify measured GI50 corresponding to O=C(NNCc1ccccc1O)c1ccccc1O
7.52 µM (inactive)
